Where do the numbers come from? From PubChem BioAssay (NCI).

Tested on: A549 NSCLC
Test: NCI tumour cell line growth inhibition, 48 h
endpoint.name: TGI

A selection of reference data follows.
OC1(c2ccccc2)CC2CCC(C1)N2CCc1ccccc1 (stereo unspecified)    > 100 µM
Clc1ccc(N=C/C=C/Nc2ccc(Cl)cn2)nc1    29.1 µM
CCOC(=O)c1nc2cc(N3CCOCC3)c(F)cc2[nH]c1=O    > 100 µM
O=C(O)CC(C(=O)O)c1ccccc1[N+](=O)[O-] (stereo unspecified)    > 100 µM
COc1cccc(-c2nn(-c3ccccc3)cc2-c2ccnc(NCCNS(=O)(=O)c3ccc(Cl)cc3)c2)c1    > 100 µM

Then there is this molecule:
Quote TGI with test system A549 NSCLC for COc1ccc(OC)c(C2CCc3nc4nc(N)nc(N)c4cc3C2)c1 (stereo unspecified)
31.4 µM
